B1: KRT13 (parent)
chain: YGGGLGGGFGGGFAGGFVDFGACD

Variants of: B1
Assay: protein stability index of a GFP-peptide fusion (GPS, HEK-293T) (PSI 1-6); higher = more stable;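 note: lentivirally expressed fusions sorted by FACS into six bins by GFP to DsRed ratio, PSI derived from sequencing read proportions per bin multiplied by bin number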
Conditions: c terminus: a fixed tail appended
Property Label: protein stability index
Kindly provide the number alone.

// protein stability index lookup, key: `F17R`
1.57

// protein stability index lookup, key: `A14P`
2.02

// protein stability index lookup, key: `C23W`
1.84

// protein stability index lookup, key: `F20D`
2.19

// protein stability index lookup, key: `F9L`
1.76

// protein stability index lookup, key: `G8W`
3.32

// protein stability index lookup, key: `Y1T`
2.73

// protein stability index lookup, key: `G6W`
3.1

// protein stability index lookup, key: `G7N`
1.31

// protein stability index lookup, key: `G4Q`
1.68

// protein stability index lookup, key: `G6M`
1.81

// protein stability index lookup, key: `G4F`
1.7

// protein stability index lookup, key: `G12I`
2.4
